system: intramacrophage L. donovani amastigotes; test: L. donovani amastigote proliferation within primary mouse macrophages; type: cell-based; details: Leishmania donovani, Macrophage
Strictly below 70 nM in EC50: Satisfied. Otherwise: Not satisfied.

Check out these entries, answers already filled in.
{"mol": "Cc1nc(C)c(C(=O)Nc2ccc(F)c(-c3nc4ncc(-c5ncccc5CO)cn4n3)c2)o1", "label": "Not satisfied"}
{"mol": "Cc1nc(C)c(C(=O)Nc2ccc(F)c(-c3nc4ncc(-c5ncccc5C)cn4n3)c2)o1", "label": "Satisfied"}
{"mol": "Cc1nc(C)c(C(=O)Nc2ccc(F)c(-c3nc4ncc(-c5ncccc5C(F)F)cn4n3)c2)o1", "label": "Not satisfied"}

Then this compound:
Prompt: hey, is EC50 for Cc1nc(C)c(C(=O)Nc2ccc(F)c(-c3nc4ncc(-c5ncccc5Cl)cn4n3)c2)o1 lower than 70 nM or not?
Completion: Satisfied
